# Tested on: MDA-N
# procedureSummary: NCI tumour cell line growth inhibition, 48 h
assayEndpoint: TGI

Task item: GET /values?readout=TGI&item= CC1CCC2N(C1)CC1C3(O)CC45OC6(O)C(O)CCC4(C)C6CCC5C3(O)CC(O)C1(O)C2(C)O (stereo unspecified)
Reply: > 100 µM

Task item: GET /values?readout=TGI&item= C/C=C1\C(=O)OC2CCN3CCC(COC(=O)C(C)(O)C(C)C1O)C23 (stereo unspecified)
Reply: > 100 µM

Task item: GET /values?readout=TGI&item= COC1(OC)c2no[n+]([O-])c2C(OC)(OC)c2c1no[n+]2[O-]
Reply: 62.8 µM

Task item: GET /values?readout=TGI&item= C(/Cc1ccc2c(c1)OCO2)=N\NC1=NCCCN1
Reply: > 100 µM

Task item: GET /values?readout=TGI&item= O=C(c1ccc(Cl)cc1)C1OC12C(=O)Nc1ccccc12 (stereo unspecified)
Reply: 14.5 µM

Task item: GET /values?readout=TGI&item= Cn1c2ccccc2n2c3ncccc3c(=S)c(C#N)c12
Reply: > 100 µM
